Where do the numbers come from? From paper PMC9147024.

system: AAAGCTTT (DNA, hairpin) CCAAAGCTTTGCTCTCAAAGCTTTGG; assay: SPR; details: Na+ 100 mM; 50 mM Tris-HCl, 1 mM EDTA, pH 7.4, 25 °C
Catalogue of compounds with associated KD
Report the figure in nM without appending any unit label.

Please review the following examples before continuing.
smiles code: N=C(N)c1ccc(OCc2cccc(COc3ccc(C(=N)N)cc3)n2)cc1
readout value: 58
//
smiles code: c1cc(COc2ccc(C3=NCCCN3)cc2)nc(COc2ccc(C3=NCCCN3)cc2)c1
readout value: 27
//
smiles code: c1cc(COc2ccc(C3=NCCN3)cc2)nc(COc2ccc(C3=NCCN3)cc2)c1
readout value: 123

Value lookup for KD; key = N=C(N)c1ccc(OCc2cccc(COc3ccc(C(N)=O)cc3)n2)cc1 1025

* * *

tested on: AATGAAT (DNA, hairpin) CCAATGAATGCTCTCATTCATTGG; test: SPR; details: Na+ 100 mM; 50 mM Tris-HCl, 1 mM EDTA, pH 7.4, 25 °C
Catalogue of compounds with associated KD
Report the figure in µM without appending any unit label.

Please review the following examples before continuing.
smiles code: N=C(N)c1ccc(OCc2cccc(COc3ccc(C(=N)N)cc3)n2)cc1
tested system: AATGAAT (DNA, hairpin) CCAATGAATGCTCTCATTCATTGG
KD, µM: 0.024
--
smiles code: N=C(N)c1ccc(OCc2cccc(COc3ccc(C(N)=O)cc3)n2)cc1
tested system: AATGAAT (DNA, hairpin) CCAATGAATGCTCTCATTCATTGG
KD, µM: 0.689
--
smiles code: c1cc(COc2ccc(C3=NCCCN3)cc2)nc(COc2ccc(C3=NCCCN3)cc2)c1
tested system: AATGAAT (DNA, hairpin) CCAATGAATGCTCTCATTCATTGG
KD, µM: 0.0057

Next item in the queue.
Value lookup for KD; key = c1cc(COc2ccc(C3=NCCN3)cc2)nc(COc2ccc(C3=NCCN3)cc2)c1 0.101

* * *

tested on: AAAGTTT (DNA, hairpin) CCAAAGTTTGCTCTCAAACTTTGG; assay: SPR; details: Na+ 100 mM; 50 mM Tris-HCl, 1 mM EDTA, pH 7.4, 25 °C
Catalogue of compounds with associated KD
Report the figure in µM without appending any unit label.

Please review the following examples before continuing.
smiles code: N=C(N)c1ccc(OCc2cccc(COc3ccc(C(N)=O)cc3)n2)cc1
tested system: AAAGTTT (DNA, hairpin) CCAAAGTTTGCTCTCAAACTTTGG
KD (µM): 0.052

smiles code: c1cc(COc2ccc(C3=NCCCN3)cc2)nc(COc2ccc(C3=NCCCN3)cc2)c1
tested system: AAAGTTT (DNA, hairpin) CCAAAGTTTGCTCTCAAACTTTGG
KD (µM): 0.001

smiles code: N=C(N)c1ccc(OCc2cccc(COc3ccc(C(=N)N)cc3)c2)cc1
tested system: AAAGTTT (DNA, hairpin) CCAAAGTTTGCTCTCAAACTTTGG
KD (µM): 0.9

Value lookup for KD; key = c1cc(COc2ccc(C3=NCCN3)cc2)nc(COc2ccc(C3=NCCN3)cc2)c1 0.0036
